- target-desc: smooth muscle angiotensin II receptor
- assay-explanation: Assay A: Angiotensin II Binding Activity (125I-AII displacement, rat uterine membrane preparation)
- measurement-context: 50% displacement of specifically bound 125I-AII, rat uterine membranes, 25° C., 60 min
I'd appreciate it if you could supply pIC50 values for the items below.
Give bare numbers, as −log10 of the molar value.

Batch lookup, pIC50 per entry.
1. CCCCc1nn(CCCC)c(=O)n1Cc1ccc(-c2ccccc2-c2nnn[nH]2)cc1
2. CCCCc1nn(CCCC)c(=O)n1Cc1ccc(-c2ccccc2C(=O)O)cc1

Reply:
8.31
7.00
